Each entry below lists one item and its recorded pIC50 value.
- assay.target: Poly [ADP-ribose] polymerase 1 (Homo sapiens, UniProt P09874)
- Sequence (P09874 whole entry): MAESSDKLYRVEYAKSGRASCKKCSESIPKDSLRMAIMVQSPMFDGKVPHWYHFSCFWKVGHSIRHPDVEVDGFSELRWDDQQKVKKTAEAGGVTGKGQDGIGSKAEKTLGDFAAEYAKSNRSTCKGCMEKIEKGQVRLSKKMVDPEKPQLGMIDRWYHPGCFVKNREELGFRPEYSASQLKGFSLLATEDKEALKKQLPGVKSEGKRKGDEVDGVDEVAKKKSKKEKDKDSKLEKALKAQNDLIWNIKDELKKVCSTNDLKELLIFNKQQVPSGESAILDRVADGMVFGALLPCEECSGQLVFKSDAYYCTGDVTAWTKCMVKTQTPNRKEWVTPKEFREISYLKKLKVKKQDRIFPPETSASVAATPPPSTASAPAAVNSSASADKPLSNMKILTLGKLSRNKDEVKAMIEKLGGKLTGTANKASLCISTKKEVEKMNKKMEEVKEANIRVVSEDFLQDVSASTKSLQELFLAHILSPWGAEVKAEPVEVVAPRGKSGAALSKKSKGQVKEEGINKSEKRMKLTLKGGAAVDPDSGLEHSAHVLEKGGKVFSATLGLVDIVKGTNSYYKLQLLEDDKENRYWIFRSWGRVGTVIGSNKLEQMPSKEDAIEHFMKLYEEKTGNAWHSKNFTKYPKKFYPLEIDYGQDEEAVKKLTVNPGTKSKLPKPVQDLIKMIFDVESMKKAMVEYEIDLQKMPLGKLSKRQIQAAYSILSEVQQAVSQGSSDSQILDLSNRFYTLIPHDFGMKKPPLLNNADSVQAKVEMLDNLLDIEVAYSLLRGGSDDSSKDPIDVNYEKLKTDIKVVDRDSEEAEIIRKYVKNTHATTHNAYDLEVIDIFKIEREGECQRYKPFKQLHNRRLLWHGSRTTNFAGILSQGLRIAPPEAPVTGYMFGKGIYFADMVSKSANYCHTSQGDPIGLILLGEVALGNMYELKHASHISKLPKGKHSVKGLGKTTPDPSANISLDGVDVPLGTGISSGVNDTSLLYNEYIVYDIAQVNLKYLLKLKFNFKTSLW
- test.details: Inhibitory activity against human recombinant PARP-1
Would you please state pIC50, meaning minus log10 of the concentration in mol/L, as a bare number?

Example results:
>>> value_reported("O=C(CCn1c2c(c(=O)[nH]c1=O)CCCC2)NCC(=O)N1CCN(c2ccccc2)CC1")
6.70
>>> value_reported("O=C(CCn1c2c(c(=O)[nH]c1=O)CCCCC2)NCC(=O)N1CCN(c2ncccn2)CC1")
6.05
>>> value_reported("O=C(CCn1c2c(c(=O)[nH]c1=O)CSCC2)NCC(=O)N1CCN(c2ncncn2)CC1")
7.30

## Task Suppose we examine the compound `O=C(CCn1c2c(c(=O)[nH]c1=O)CSCC2)NCC(=O)c1ccc(Br)cc1` ; what pIC50 value has been reported?
## Result 7.82

---

- System: Rattus norvegicus
- test.details: Volume at steady state distribution by administering the compound intravenously at a dose of 1 mg/kg in male wistar rat was determined
- Type: ADME, organism-based
- Set-up: dose 1 mg/kg, route intravenous
- condition.details: in vivo, iv
The threshold is 0.5 L/kg. Values of Vss beneath it are tagged label 1; values meeting or exceeding it are tagged label 0.

Consider the following illustrative entries.
>>> answer_label("COc1ccc(N2CCN(C(=O)CNC(=O)CCn3c4c(c(=O)[nH]c3=O)CSCC4)CC2)cc1")
"label 0"
>>> answer_label("O=C(CCn1c2c(c(=O)[nH]c1=O)CSCC2)NCC(=O)N1CCN(c2ncccn2)CC1")
"label 1"
>>> answer_label("O=C(CCn1c2c(c(=O)[nH]c1=O)CSCC2)NCC(=O)c1ccc(-c2cccnn2)cc1")
"label 1"

## Task API: query returns whether the compound falls strictly under 0.5 L/kg in Vss. Query: `O=C(CCn1c2c(c(=O)[nH]c1=O)CSCC2)NCC(=O)N1CCN(c2cc(C(F)(F)F)ccn2)CC1`
## Result label 1

## Task Next record, please: `O=C(CCn1c2c(c(=O)[nH]c1=O)CSCC2)NCC(=O)N1CCN(c2ccccc2)CC1`
## Result label 0

## Task Try `O=C(CCn1c2c(c(=O)[nH]c1=O)CSCC2)NCC(=O)N1CCN(c2ccccn2)CC1` next.
## Result label 0

---

- test.details: Clearance was determined by administering the compound intravenously at a dose of 1 mg/kg in male wistar rat
- Format: ADME, organism-based
- Parameters: dose 1 mg/kg, route intravenous
- condition.details: in vivo, iv
property: clearance (mL/min/kg)
Give the number; mL/min/kg is assumed, so skip it.

Take a look at these entries with their results.
>>> value_reported("O=C(CCn1c2c(c(=O)[nH]c1=O)CSCC2)NCC(=O)N1CCN(c2ncccc2C(F)(F)F)CC1")
71.7
>>> value_reported("O=C(CCn1c2c(c(=O)[nH]c1=O)CSCC2)NCC(=O)N1CCN(c2ccccc2)CC1")
72.2
>>> value_reported("O=C(CCn1c2c(c(=O)[nH]c1=O)CSCC2)NCC(=O)c1ccc(-c2cccnn2)cc1")
27.3

## Task Param item = `O=C(CCn1c2c(c(=O)[nH]c1=O)CSCC2)NCC(=O)N1CCN(c2ncccn2)CC1` ; retrieve measured clearance.
## Result 33.5

## Task Same read-out for `O=C(CCn1c2c(c(=O)[nH]c1=O)CSCC2)NCC(=O)N1CCN(c2cc(C(F)(F)F)ccn2)CC1` ?
## Result 36.8

## Task Same read-out for `O=C(CCn1c2c(c(=O)[nH]c1=O)CSCC2)NCC(=O)N1CCN(c2ccccn2)CC1` ?
## Result 51.8

## Task One more molecule: `O=C(CCn1c2c(c(=O)[nH]c1=O)CCCC2)NCC(=O)c1ccc2ccccc2c1`
## Result 28.3
